B1: library; a variant is named by its letters at N, in order (parent)
chain: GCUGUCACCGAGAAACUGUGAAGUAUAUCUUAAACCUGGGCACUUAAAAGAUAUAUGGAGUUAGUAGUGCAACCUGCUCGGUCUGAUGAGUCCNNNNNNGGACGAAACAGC

Variants of: B1
Assay: normalized RNA/DNA level with ligand (relative to sTRSVctl = 100) (log10 (% of sTRSVctl)); HEK293T; ligand: cyclic di-GMP (c-di-GMP-II aptamer); ligand concentration (+) RNA-Seq: 1 mM; higher = less ribozyme self-cleavage, higher mRNA level
Details: reporter: mCherry (pCS4076), ligand present: yes
measured quantity: normalized RNA/DNA level with ligand (log10)
API note: the answer field is a bare number with no unit suffix.

[Q] Bench note: what normalized RNA/DNA level with ligand (log10) did AGGUGA show?
[A] 1.6

[Q] Bench note: what normalized RNA/DNA level with ligand (log10) did CCUAUA show?
[A] 1.65

[Q] Bench note: what normalized RNA/DNA level with ligand (log10) did UUGUGU show?
[A] 1.88

[Q] Bench note: what normalized RNA/DNA level with ligand (log10) did CAUAUU show?
[A] 1.64

[Q] Bench note: what normalized RNA/DNA level with ligand (log10) did AGCAGA show?
[A] 1.69

[Q] Bench note: what normalized RNA/DNA level with ligand (log10) did CCCAUG show?
[A] 1.73

[Q] Bench note: what normalized RNA/DNA level with ligand (log10) did AUUGUA show?
[A] 1.71

[Q] Bench note: what normalized RNA/DNA level with ligand (log10) did CAUAGC show?
[A] 1.84

[Q] Bench note: what normalized RNA/DNA level with ligand (log10) did CGGCCU show?
[A] 1.88

[Q] Bench note: what normalized RNA/DNA level with ligand (log10) did UGCAUC show?
[A] 1.87

[Q] Bench note: what normalized RNA/DNA level with ligand (log10) did ACCUUC show?
[A] 1.83
